Readings of GI50 for the listed compounds
Tested on: HT29
All answers are understood in µg/mL, so give the number only.

Examples with their reported GI50 follow.
Cc1ccc(-c2cc(-c3cccnc3)nc(N[C@@H]3O[C@H](CO)[C@@H](O)[C@H](O)[C@H]3O)n2)cc1; 4.43
CC(=O)OC[C@H]1O[C@@H](Nc2nc(-c3ccc(C)cc3)cc(-c3ccccn3)n2)[C@H](OC(C)=O)[C@@H](OC(C)=O)[C@@H]1OC(C)=O; 1.47
CC(=O)OC[C@H]1O[C@@H](Nc2nc(-c3ccccn3)cc(-c3ccccc3C)n2)[C@H](OC(C)=O)[C@@H](OC(C)=O)[C@@H]1OC(C)=O; 2.1
Cc1ccccc1-c1cc(-c2ccncc2)nc(N[C@@H]2O[C@H](CO)[C@@H](O)[C@H](O)[C@H]2O)n1; 2.22
CC(=O)OC[C@H]1O[C@@H](Nc2nc(-c3ccc(C)cc3)cc(-c3cccnc3)n2)[C@H](OC(C)=O)[C@@H](OC(C)=O)[C@@H]1OC(C)=O; 3.09

Req: Report GI50 for "CC(=O)OC[C@H]1O[C@@H](Nc2nc(-c3ccncc3)cc(-c3ccc(C)cc3)n2)[C@H](OC(C)=O)[C@@H](OC(C)=O)[C@@H]1OC(C)=O" tested on HT29.
Resp: 7.77

Req: Report GI50 for "CC(=O)OC[C@H]1O[C@@H](Nc2nc(-c3cccc(C)c3)cc(-c3ccccn3)n2)[C@H](OC(C)=O)[C@@H](OC(C)=O)[C@@H]1OC(C)=O" tested on HT29.
Resp: 2.94

Req: Report GI50 for "Cc1cccc(-c2cc(-c3cccnc3)nc(N[C@@H]3O[C@H](CO)[C@@H](O)[C@H](O)[C@H]3O)n2)c1" tested on HT29.
Resp: 4.12

Req: Report GI50 for "Cc1cccc(-c2cc(-c3ccncc3)nc(N[C@@H]3O[C@H](CO)[C@@H](O)[C@H](O)[C@H]3O)n2)c1" tested on HT29.
Resp: 4.29

Req: Report GI50 for "Cc1ccc(-c2cc(-c3ccccn3)nc(N[C@@H]3O[C@H](CO)[C@@H](O)[C@H](O)[C@H]3O)n2)cc1" tested on HT29.
Resp: 2.5

Req: Report GI50 for "Cc1ccc(-c2cc(-c3ccncc3)nc(N[C@@H]3O[C@H](CO)[C@@H](O)[C@H](O)[C@H]3O)n2)cc1" tested on HT29.
Resp: 4.3

Req: Report GI50 for "CC(=O)OC[C@H]1O[C@@H](Nc2nc(-c3cccnc3)cc(-c3ccccc3C)n2)[C@H](OC(C)=O)[C@@H](OC(C)=O)[C@@H]1OC(C)=O" tested on HT29.
Resp: 2.75

====

Readings of cytotoxicity at 24 h, 50 μg/mL for the listed molecules
experiment: LDH cytotoxic activity assay, MCF7
Assay type: cell-based
condition notes: human, MCF7 cells, MCF7, 50 μg/mL
All answers are understood in %, so give the number only.

Examples with their reported cytotoxicity at 24 h, 50 μg/mL follow.
Cc1cccc(-c2cc(-c3ccccn3)nc(N[C@@H]3O[C@H](CO)[C@@H](O)[C@H](O)[C@H]3O)n2)c1; 22.5
Cc1cccc(-c2cc(-c3ccncc3)nc(N[C@@H]3O[C@H](CO)[C@@H](O)[C@H](O)[C@H]3O)n2)c1; 12.5
Cc1ccc(-c2cc(-c3ccncc3)nc(N[C@@H]3O[C@H](CO)[C@@H](O)[C@H](O)[C@H]3O)n2)cc1; 19.2

Req: Consider the molecule shown here: "Cc1ccc(-c2cc(-c3ccccn3)nc(N[C@@H]3O[C@H](CO)[C@@H](O)[C@H](O)[C@H]3O)n2)cc1" What is its recorded cytotoxicity at 24 h, 50 μg/mL?
Resp: 20.1

Req: Consider the molecule shown here: "Cc1ccc(-c2cc(-c3cccnc3)nc(N[C@@H]3O[C@H](CO)[C@@H](O)[C@H](O)[C@H]3O)n2)cc1" What is its recorded cytotoxicity at 24 h, 50 μg/mL?
Resp: 20.1

Req: Consider the molecule shown here: "Cc1cccc(-c2cc(-c3cccnc3)nc(N[C@@H]3O[C@H](CO)[C@@H](O)[C@H](O)[C@H]3O)n2)c1" What is its recorded cytotoxicity at 24 h, 50 μg/mL?
Resp: 12.2

====

experiment: LDH cytotoxic activity assay, MCF7
Type: cell-based
condition notes: human, MCF7 cells, MCF7, 25 μg/mL
Short version: cytotoxicity at 24 h, 25 μg/mL at least 8% is label 1, less is label 0.

Answered cases to consult:
Cc1cccc(-c2cc(-c3ccccn3)nc(N[C@@H]3O[C@H](CO)[C@@H](O)[C@H](O)[C@H]3O)n2)c1; label 1
Cc1ccc(-c2cc(-c3cccnc3)nc(N[C@@H]3O[C@H](CO)[C@@H](O)[C@H](O)[C@H]3O)n2)cc1; label 1
O=c1[nH]cc(F)c(=O)[nH]1 [Compound 5FU, 5-fluorouracil, reference compound]; label 0
Cc1ccc(-c2cc(-c3ccncc3)nc(N[C@@H]3O[C@H](CO)[C@@H](O)[C@H](O)[C@H]3O)n2)cc1; label 1
Cc1cccc(-c2cc(-c3ccncc3)nc(N[C@@H]3O[C@H](CO)[C@@H](O)[C@H](O)[C@H]3O)n2)c1; label 0

Next item in the queue.
Req: Is the recorded value of cytotoxicity at 24 h, 25 μg/mL equal to or greater than 8% for this compound? "Cc1ccc(-c2cc(-c3ccccn3)nc(N[C@@H]3O[C@H](CO)[C@@H](O)[C@H](O)[C@H]3O)n2)cc1"
Resp: label 0

====

target desc: BSA (Bos taurus)
Sequence (P02769 25-607): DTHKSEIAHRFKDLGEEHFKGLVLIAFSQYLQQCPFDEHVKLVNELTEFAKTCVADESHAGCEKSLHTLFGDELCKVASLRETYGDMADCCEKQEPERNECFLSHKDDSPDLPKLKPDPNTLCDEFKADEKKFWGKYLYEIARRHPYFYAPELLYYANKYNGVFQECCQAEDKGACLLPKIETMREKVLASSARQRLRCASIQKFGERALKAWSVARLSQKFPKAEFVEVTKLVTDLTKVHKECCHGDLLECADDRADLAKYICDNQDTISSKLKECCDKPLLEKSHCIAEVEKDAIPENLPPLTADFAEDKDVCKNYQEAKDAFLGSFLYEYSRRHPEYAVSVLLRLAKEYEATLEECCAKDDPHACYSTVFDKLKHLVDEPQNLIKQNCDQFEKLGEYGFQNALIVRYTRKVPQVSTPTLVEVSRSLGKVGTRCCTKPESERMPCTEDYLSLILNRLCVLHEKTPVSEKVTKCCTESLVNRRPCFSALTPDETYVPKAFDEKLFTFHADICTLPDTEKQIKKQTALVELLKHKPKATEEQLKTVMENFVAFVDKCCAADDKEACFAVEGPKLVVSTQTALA
experiment: BSA binding study, UV-Visible absorption
condition notes: UV-Vis, 25 μM compound, BSA 6.5–800 μM
value type: change of absorption on adding increasing amounts of BSA

Cc1cccc(-c2cc(-c3ccncc3)nc(N[C@@H]3O[C@H](CO)[C@@H](O)[C@H](O)[C@H]3O)n2)c1 [Compound 6]; hyperchromic activity
Cc1ccc(-c2cc(-c3ccncc3)nc(N[C@@H]3O[C@H](CO)[C@@H](O)[C@H](O)[C@H]3O)n2)cc1 [Compound 9]; hyperchromic activity
Cc1cccc(-c2cc(-c3ccccn3)nc(N[C@@H]3O[C@H](CO)[C@@H](O)[C@H](O)[C@H]3O)n2)c1 [Compound 4]; hyperchromic activity

====

System: C6 (Rat brain glioma)
experiment: cells
Assay type: cell-based
condition notes: Rattus norvegicus, read-out: LC50
Readings of LC50 (concentration giving 50% net cell loss relative to time zero) for the listed compounds
All answers are understood in mg/L, so give the number only.

Examples with their reported LC50 (concentration giving 50% net cell loss relative to time zero) follow.
CC(=O)OC[C@H]1O[C@@H](Nc2nc(-c3ccncc3)cc(-c3cccc(C)c3)n2)[C@H](OC(C)=O)[C@@H](OC(C)=O)[C@@H]1OC(C)=O; 71.2
Cc1ccccc1-c1cc(-c2ccccn2)nc(N[C@@H]2O[C@H](CO)[C@@H](O)[C@H](O)[C@H]2O)n1; 245
Cc1cccc(-c2cc(-c3ccccn3)nc(N[C@@H]3O[C@H](CO)[C@@H](O)[C@H](O)[C@H]3O)n2)c1; 77.4

Req: Report LC50 (concentration giving 50% net cell loss relative to time zero) for "Cc1ccccc1-c1cc(-c2cccnc2)nc(N[C@@H]2O[C@H](CO)[C@@H](O)[C@H](O)[C@H]2O)n1" tested on C6 (Rat brain glioma).
Resp: 217

Req: Report LC50 (concentration giving 50% net cell loss relative to time zero) for "CC(=O)OC[C@H]1O[C@@H](Nc2nc(-c3cccnc3)cc(-c3ccccc3C)n2)[C@H](OC(C)=O)[C@@H](OC(C)=O)[C@@H]1OC(C)=O" tested on C6 (Rat brain glioma).
Resp: 578

Req: Report LC50 (concentration giving 50% net cell loss relative to time zero) for "CC(=O)OC[C@H]1O[C@@H](Nc2nc(-c3ccncc3)cc(-c3ccc(C)cc3)n2)[C@H](OC(C)=O)[C@@H](OC(C)=O)[C@@H]1OC(C)=O" tested on C6 (Rat brain glioma).
Resp: 29.8

Req: Report LC50 (concentration giving 50% net cell loss relative to time zero) for "Cc1ccc(-c2cc(-c3cccnc3)nc(N[C@@H]3O[C@H](CO)[C@@H](O)[C@H](O)[C@H]3O)n2)cc1" tested on C6 (Rat brain glioma).
Resp: 225

Req: Report LC50 (concentration giving 50% net cell loss relative to time zero) for "Cc1ccc(-c2cc(-c3ccccn3)nc(N[C@@H]3O[C@H](CO)[C@@H](O)[C@H](O)[C@H]3O)n2)cc1" tested on C6 (Rat brain glioma).
Resp: 88.3

Req: Report LC50 (concentration giving 50% net cell loss relative to time zero) for "CC(=O)OC[C@H]1O[C@@H](Nc2nc(-c3ccncc3)cc(-c3ccccc3C)n2)[C@H](OC(C)=O)[C@@H](OC(C)=O)[C@@H]1OC(C)=O" tested on C6 (Rat brain glioma).
Resp: 139

Req: Report LC50 (concentration giving 50% net cell loss relative to time zero) for "CC(=O)OC[C@H]1O[C@@H](Nc2nc(-c3cccc(C)c3)cc(-c3ccccn3)n2)[C@H](OC(C)=O)[C@@H](OC(C)=O)[C@@H]1OC(C)=O" tested on C6 (Rat brain glioma).
Resp: 33.9

// provenance: paper PMC10387993
